Entries and their pIC50 values follow.
Tested on: A549
Protocol: Cytotoxicity against Homo sapiens (human) A549 cells assessed as cell viability after 72 hr by MTT assay
Format: functional, cell-based
Run Conditions: A549, 72 h
pIC50: −log10 of the molar value.
Readout Kind: pIC50

{"Structure String": "COc1ccc(OC)c(/C=C/C(=O)c2ccccc2F)c1", "Limit Operator": "=", "Quantitative Result": 6.95}
{"Structure String": "COc1ccc(C(=O)/C=C/c2c(OC)cc(OC)cc2OC)c(F)c1", "Limit Operator": "<", "Quantitative Result": 4.00}
{"Structure String": "COc1ccc(C(=O)/C=C/c2ccc(OC)c(OC)c2OC)c(F)c1", "Limit Operator": "=", "Quantitative Result": 6.97}
{"Structure String": "COc1cc(/C=C/C(=O)c2ccccc2F)cc(OC)c1", "Limit Operator": "=", "Quantitative Result": 7.36}
{"Structure String": "COc1ccc(C(=O)/C=C/c2cc(OC)c(OC)cc2OC)c(F)c1", "Limit Operator": "=", "Quantitative Result": 6.69}
{"Structure String": "COc1ccc(/C=C/C(=O)c2ccccc2F)c(OC)c1", "Limit Operator": "=", "Quantitative Result": 7.06}
{"Structure String": "COc1ccc(C(=O)/C=C/c2cc(OC)c(OC)c(OC)c2)c(F)c1", "Limit Operator": "=", "Quantitative Result": 6.97}
{"Structure String": "COc1cc(/C=C/C(=O)c2ccc(OC)cc2F)cc(OC)c1", "Limit Operator": "=", "Quantitative Result": 6.99}
{"Structure String": "COc1cc(OC)c(OC)cc1/C=C/C(=O)c1ccccc1F", "Limit Operator": "=", "Quantitative Result": 7.10}
{"Structure String": "COc1cc(OC)c(/C=C/C(=O)c2ccccc2F)c(OC)c1", "Limit Operator": "<", "Quantitative Result": 4.00}
{"Structure String": "COc1ccc(C(=O)/C=C/c2ccc(OC)cc2OC)c(F)c1", "Limit Operator": "<", "Quantitative Result": 4.00}
{"Structure String": "COc1cc(/C=C/C(=O)c2ccccc2F)cc(OC)c1OC", "Limit Operator": "<", "Quantitative Result": 4.00}
